organism: Mus musculus; experiment: Effective dose required for anticonvulsive activity in pentylenetetrazole (PTZ) test; type: functional
Reported ED50 values for the following compounds.
Answer with a number only, understood to be in µmol/kg.

Answered cases to consult:
C=CC(N)CCC(=O)N1CCC(C(=O)OC)CC1 (stereo not given) | 320
C=CC(N)CCC(=O)N1CCCC(C(=O)OC)C1 (stereo not given) | 150

Turning now to a further record.
Exercise: Query: ED50; subject: C=CC(CCC(=O)OC)NC(=O)C1CCCNC1 (stereo not given)
Solution: 410

---

organism: Mus musculus; assay: Effective dose required for anticonvulsive activity in bicuculline (BIC) test; format: functional
Reported Metric: ED50 (µmol/kg)
Answer with a number only, understood to be in µmol/kg.

Answered cases to consult:
C=CC(CCC(=O)OC)NC(=O)C1CCNCC1 (stereo unspecified) | 460
C=CC(N)CCC(=O)O (stereo unspecified) | 220
C=CC(N)CCC(=O)N1CCCC1=O (stereo unspecified) | 200
C=CC(N)CCC(=O)N1CCCC(C(=O)OC)C1 (stereo unspecified) | 140
C=CC(N)CCC(=O)N1CCC(C(=O)OC)CC1 (stereo unspecified) | 150

Exercise: Query: ED50; subject: C=CC(CCC(=O)OC)NC(=O)C1CCCNC1 (stereo unspecified)
Solution: 310
